- ASSAY METHOD TEXT: The drug is tested on the gut metagenome community of P-01 with ENA study accession number: PRJEB31790 for biotransformation under microaerobic condition. The drug concentrations were measured over 7 timepoints collected between 0 and 12 hours of incubation by liquid-chromatography-coupled mass spectrometry (LC–MS)
- Type: ADME
- Parameters: dose 5 uM, timepoint 0, 0.75, 1.5, 3, 6, 9, 12 hours
- TEST SETTINGS: 5 µM
ASSAY METRIC: Bacterial Biotransformation

compound="C[C@@H]1C[C@H]2[C@@H]3CCC4=CC(=O)C=C[C@]4(C)[C@@]3(F)[C@@H](O)C[C@]2(C)[C@@]1(O)C(=O)CO [DEXAMETHASONE]" assay_metric="Bacterial Biotransformation" data_value="Compound NOT metabolized"
compound=CCOc1nc2cccc(C(=O)O)c2n1Cc1ccc(-c2ccccc2-c2nnn[nH]2)cc1 assay_metric="Bacterial Biotransformation" data_value="Compound NOT metabolized"
compound="COc1ccc([C@@H]2Sc3ccccc3N(CCN(C)C)C(=O)[C@@H]2OC(C)=O)cc1 [DILTIAZEM]" assay_metric="Bacterial Biotransformation" data_value="Compound metabolized"
compound="C[C@]12CCC(=O)C=C1CC[C@@H]1[C@@H]2C(=O)C[C@@]2(C)[C@H]1CC[C@]2(O)C(=O)CO [CORTISONE]" assay_metric="Bacterial Biotransformation" data_value="Compound metabolized"
compound="CCCC1O[C@@H]2C[C@H]3[C@@H]4CCC5=CC(=O)C=C[C@]5(C)[C@H]4[C@@H](O)C[C@]3(C)[C@]2(C(=O)CO)O1 (some centres undefined) [BUDESONIDE]" assay_metric="Bacterial Biotransformation" data_value="Compound NOT metabolized"
compound="C[C@H]1C[C@@H]2[C@H]([C@@H](O)C[C@@]3(C)[C@H]2CC[C@]3(O)C(=O)CO)[C@@]2(C)C=CC(=O)C=C12 [METHYLPREDNISOLONE]" assay_metric="Bacterial Biotransformation" data_value="Compound metabolized"
compound="CO[C@H]1C[C@@H]2CC[C@@H](C)[C@@](O)(O2)C(=O)C(=O)N2CCCC[C@H]2C(=O)O[C@H]([C@H](C)C[C@@H]2CC[C@@H](O)[C@H](OC)C2)CC(=O)[C@H](C)/C=C(\\C)[C@@H](O)[C@@H](OC)C(=O)[C@H](C)C[C@H](C)/C=C/C=C/C=C/1C [SIROLIMUS]" assay_metric="Bacterial Biotransformation" data_value="Compound NOT metabolized"
compound="CO[C@H]1C[C@@H]2CC[C@@H](C)[C@@](O)(O2)C(=O)C(=O)N2CCCC[C@H]2C(=O)O[C@H]([C@H](C)C[C@@H]2CC[C@@H](OCCO)[C@H](OC)C2)CC(=O)[C@H](C)/C=C(\\C)[C@@H](O)[C@@H](OC)C(=O)[C@H](C)C[C@H](C)/C=C/C=C/C=C/1C [EVEROLIMUS]" assay_metric="Bacterial Biotransformation" data_value="Compound NOT metabolized"

Prompt: # lookup: Bacterial Biotransformation of CNC(=C[N+](=O)[O-])NCCSCc1ccc(CN(C)C)o1 [RANITIDINE]
Completion: Compound metabolized

Prompt: # lookup: Bacterial Biotransformation of CC(C)NCC(O)COc1ccc(CC(N)=O)cc1 (centres undefined) [ATENOLOL]
Completion: Compound NOT metabolized

Prompt: # lookup: Bacterial Biotransformation of NS(=O)(=O)c1cc(C(=O)O)c(NCc2ccco2)cc1Cl [FUROSEMIDE]
Completion: Compound NOT metabolized

###

- ASSAY METHOD TEXT: The drug is tested on Gemella morbillorum strain: DSM20572 for biotransformation under anaerobic condition. The drug concentrations were measured over 6 timepoints collected between 0 and 12 hours of incubation by liquid-chromatography-coupled mass spectrometry (LC–MS)
- Format: ADME
- Set-up: dose 5 uM, timepoint 0, 1.5, 3, 6, 9, 12 hours
- TEST SETTINGS: 5 µM
ASSAY METRIC: Bacterial Biotransformation

Check out these entries, answers already filled in.
compound="NS(=O)(=O)c1cc(C(=O)O)c(NCc2ccco2)cc1Cl [FUROSEMIDE]" data_value="Compound NOT metabolized"
compound="CC(C)NCC(O)COc1ccc(CC(N)=O)cc1 (stereo unspecified)" data_value="Compound NOT metabolized"
compound=Cn1cnc([N+](=O)[O-])c1Sc1ncnc2nc[nH]c12 data_value="Compound NOT metabolized"
compound=C[C@H]1C[C@H]2[C@@H]3CCC4=CC(=O)C=C[C@]4(C)[C@@]3(F)[C@@H](O)C[C@]2(C)[C@@]1(O)C(=O)CO data_value="Compound NOT metabolized"
compound=C[C@]12C=CC(=O)C=C1CC[C@@H]1[C@@H]2C(=O)C[C@@]2(C)[C@H]1CC[C@]2(O)C(=O)CO data_value="Compound NOT metabolized"
compound="CCOC(=O)C1=C(COCCN)NC(C)=C(C(=O)OC)C1c1ccccc1Cl (stereo unspecified)" data_value="Compound NOT metabolized"
compound=C=CC[C@@H]1/C=C(\C)C[C@H](C)C[C@H](OC)[C@H]2O[C@@](O)(C(=O)C(=O)N3CCCC[C@H]3C(=O)O[C@H](/C(C)=C/[C@@H]3CC[C@@H](O)[C@H](OC)C3)[C@H](C)[C@@H](O)CC1=O)[C@H](C)C[C@@H]2OC.O data_value="Compound NOT metabolized"
compound=C[C@]12C=CC(=O)C=C1CC[C@@H]1[C@@H]2[C@@H](O)C[C@@]2(C)[C@H]1CC[C@]2(O)C(=O)CO data_value="Compound NOT metabolized"
compound="C[C@]12CCC(=O)C=C1CC[C@@H]1[C@@H]2[C@@H](O)C[C@@]2(C)[C@H]1CC[C@]2(O)C(=O)CO [HYDROCORTISONE]" data_value="Compound NOT metabolized"
compound="CCCC1O[C@@H]2C[C@H]3[C@@H]4CCC5=CC(=O)C=C[C@]5(C)[C@H]4[C@@H](O)C[C@]3(C)[C@]2(C(=O)CO)O1 (stereo partly specified) [BUDESONIDE]" data_value="Compound NOT metabolized"

With those in mind, consider the next compound.
Prompt: # lookup: Bacterial Biotransformation of `CCC(C)(C)C(=O)O[C@H]1C[C@@H](C)C=C2C=C[C@H](C)[C@H](CC[C@@H]3C[C@@H](O)CC(=O)O3)[C@H]21`
Completion: Compound NOT metabolized

###

- ASSAY METHOD TEXT: The drug is tested on the gut metagenome community of A-03 with ENA study accession number: PRJEB31790 for biotransformation under anaerobic condition. The drug concentrations were measured over 7 timepoints collected between 0 and 12 hours of incubation by liquid-chromatography-coupled mass spectrometry (LC–MS)
- Assay type: ADME
- Design: dose 5 uM, timepoint 0, 0.75, 1.5, 3, 6, 9, 12 hours
- TEST SETTINGS: 5 µM
ASSAY METRIC: Bacterial Biotransformation

compound=C[C@]12CCC(=O)C=C1CC[C@@H]1[C@@H]2C(=O)C[C@@]2(C)[C@H]1CC[C@]2(O)C(=O)CO data_value="Compound metabolized"
compound="COc1c(C)c2c(c(O)c1C/C=C(\\C)CCC(=O)OCCN1CCOCC1)C(=O)OC2 [MYCOPHENOLATE MOFETIL]" data_value="Compound metabolized"
compound=C[C@@H]1C[C@H]2[C@@H]3CCC4=CC(=O)C=C[C@]4(C)[C@@]3(F)[C@@H](O)C[C@]2(C)[C@@]1(O)C(=O)CO data_value="Compound metabolized"

###

- ASSAY METHOD TEXT: The drug is tested on the gut metagenome community of A-02 with ENA study accession number: PRJEB31790 for biotransformation under microaerobic condition. The drug concentrations were measured over 7 timepoints collected between 0 and 12 hours of incubation by liquid-chromatography-coupled mass spectrometry (LC–MS)
- Assay type: ADME
- Design: dose 5 uM, timepoint 0, 0.75, 1.5, 3, 6, 9, 12 hours
- TEST SETTINGS: 5 µM
ASSAY METRIC: Bacterial Biotransformation

molecule="Cn1cnc([N+](=O)[O-])c1Sc1ncnc2nc[nH]c12 [AZATHIOPRINE]" data_value="Compound metabolized"
molecule="CCCC1O[C@@H]2C[C@H]3[C@@H]4CCC5=CC(=O)C=C[C@]5(C)[C@H]4[C@@H](O)C[C@]3(C)[C@]2(C(=O)CO)O1 (some centres undefined) [BUDESONIDE]" data_value="Compound metabolized"
molecule="C[C@H]1C[C@@H]2[C@H]([C@@H](O)C[C@@]3(C)[C@H]2CC[C@]3(O)C(=O)CO)[C@@]2(C)C=CC(=O)C=C12 [METHYLPREDNISOLONE]" data_value="Compound metabolized"

###

- ASSAY METHOD TEXT: The drug is tested on the gut metagenome community of P-04 with ENA study accession number: PRJEB31790 for biotransformation under anaerobic condition. The drug concentrations were measured over 7 timepoints collected between 0 and 12 hours of incubation by liquid-chromatography-coupled mass spectrometry (LC–MS)
- Assay type: ADME
- Parameters: dose 5 uM, timepoint 0, 0.75, 1.5, 3, 6, 9, 12 hours
- TEST SETTINGS: 5 µM
ASSAY METRIC: Bacterial Biotransformation

Check out these entries, answers already filled in.
compound="CCOC(=O)C1=C(COCCN)NC(C)=C(C(=O)OC)C1c1ccccc1Cl (centres undefined) [AMLODIPINE]" data_value="Compound NOT metabolized"
compound="C[C@]12CCC(=O)C=C1CC[C@@H]1[C@@H]2C(=O)C[C@@]2(C)[C@H]1CC[C@]2(O)C(=O)CO [CORTISONE]" data_value="Compound metabolized"
compound="C[C@H]1C[C@@H]2[C@H]([C@@H](O)C[C@@]3(C)[C@H]2CC[C@]3(O)C(=O)CO)[C@@]2(C)C=CC(=O)C=C12 [METHYLPREDNISOLONE]" data_value="Compound metabolized"
compound=CCOc1nc2cccc(C(=O)O)c2n1Cc1ccc(-c2ccccc2-c2nnn[nH]2)cc1 data_value="Compound NOT metabolized"
compound="COc1c(C)c2c(c(O)c1C/C=C(\\C)CCC(=O)O)C(=O)OC2 [MYCOPHENOLIC ACID]" data_value="Compound NOT metabolized"
compound=C[C@@H](NCCCc1cccc(C(F)(F)F)c1)c1cccc2ccccc12 data_value="Compound NOT metabolized"
compound="NS(=O)(=O)c1cc(C(=O)O)c(NCc2ccco2)cc1Cl [FUROSEMIDE]" data_value="Compound NOT metabolized"
compound="Cn1cnc([N+](=O)[O-])c1Sc1ncnc2nc[nH]c12 [AZATHIOPRINE]" data_value="Compound NOT metabolized"

Prompt: # lookup: Bacterial Biotransformation of C[C@H]1C[C@H]2[C@@H]3CCC4=CC(=O)C=C[C@]4(C)[C@@]3(F)[C@@H](O)C[C@]2(C)[C@@]1(O)C(=O)CO [BETAMETHASONE]
Completion: Compound NOT metabolized

Prompt: # lookup: Bacterial Biotransformation of `CCOC(=O)[C@H](CCc1ccccc1)N[C@@H](C)C(=O)N1[C@H](C(=O)O)C[C@@H]2CCC[C@@H]21`
Completion: Compound NOT metabolized

Prompt: # lookup: Bacterial Biotransformation of CN(Cc1cnc2nc(N)nc(N)c2n1)c1ccc(C(=O)N[C@@H](CCC(=O)O)C(=O)O)cc1 [METHOTREXATE]
Completion: Compound NOT metabolized

Prompt: # lookup: Bacterial Biotransformation of C[C@]12C=CC(=O)C=C1CC[C@@H]1[C@@H]2[C@@H](O)C[C@@]2(C)[C@H]1CC[C@]2(O)C(=O)CO [PREDNISOLONE]
Completion: Compound metabolized

Prompt: # lookup: Bacterial Biotransformation of CO[C@H]1C[C@@H]2CC[C@@H](C)[C@@](O)(O2)C(=O)C(=O)N2CCCC[C@H]2C(=O)O[C@H]([C@H](C)C[C@@H]2CC[C@@H](O)[C@H](OC)C2)CC(=O)[C@H](C)/C=C(\C)[C@@H](O)[C@@H](OC)C(=O)[C@H](C)C[C@H](C)/C=C/C=C/C=C/1C [SIROLIMUS]
Completion: Compound metabolized

Prompt: # lookup: Bacterial Biotransformation of COc1c(C)c2c(c(O)c1C/C=C(\C)CCC(=O)OCCN1CCOCC1)C(=O)OC2 [MYCOPHENOLATE MOFETIL]
Completion: Compound metabolized

Prompt: # lookup: Bacterial Biotransformation of C[C@]12C=CC(=O)C=C1CC[C@@H]1[C@@H]2C(=O)C[C@@]2(C)[C@H]1CC[C@]2(O)C(=O)CO [PREDNISONE]
Completion: Compound metabolized

Prompt: # lookup: Bacterial Biotransformation of COc1ccc([C@@H]2Sc3ccccc3N(CCN(C)C)C(=O)[C@@H]2OC(C)=O)cc1 [DILTIAZEM]
Completion: Compound NOT metabolized

Prompt: # lookup: Bacterial Biotransformation of C[C@@H]1C[C@H]2[C@@H]3CCC4=CC(=O)C=C[C@]4(C)[C@@]3(F)[C@@H](O)C[C@]2(C)[C@@]1(O)C(=O)CO [DEXAMETHASONE]
Completion: Compound NOT metabolized

Prompt: # lookup: Bacterial Biotransformation of CO[C@H]1C[C@@H]2CC[C@@H](C)[C@@](O)(O2)C(=O)C(=O)N2CCCC[C@H]2C(=O)O[C@H]([C@H](C)C[C@@H]2CC[C@@H](OCCO)[C@H](OC)C2)CC(=O)[C@H](C)/C=C(\C)[C@@H](O)[C@@H](OC)C(=O)[C@H](C)C[C@H](C)/C=C/C=C/C=C/1C [EVEROLIMUS]
Completion: Compound NOT metabolized

Prompt: # lookup: Bacterial Biotransformation of CCCC1O[C@@H]2C[C@H]3[C@@H]4CCC5=CC(=O)C=C[C@]5(C)[C@H]4[C@@H](O)C[C@]3(C)[C@]2(C(=O)CO)O1 (some centres undefined) [BUDESONIDE]
Completion: Compound NOT metabolized

Prompt: # lookup: Bacterial Biotransformation of C=CC[C@@H]1/C=C(\C)C[C@H](C)C[C@H](OC)[C@H]2O[C@@](O)(C(=O)C(=O)N3CCCC[C@H]3C(=O)O[C@H](/C(C)=C/[C@@H]3CC[C@@H](O)[C@H](OC)C3)[C@H](C)[C@@H](O)CC1=O)[C@H](C)C[C@@H]2OC.O [TACROLIMUS]
Completion: Compound NOT metabolized

Prompt: # lookup: Bacterial Biotransformation of CC(C)NCC(O)COc1ccc(CC(N)=O)cc1 (centres undefined) [ATENOLOL]
Completion: Compound NOT metabolized

Prompt: # lookup: Bacterial Biotransformation of CNC(=C[N+](=O)[O-])NCCSCc1ccc(CN(C)C)o1 [RANITIDINE]
Completion: Compound NOT metabolized

Prompt: # lookup: Bacterial Biotransformation of C[C@]12CCC(=O)C=C1CC[C@@H]1[C@@H]2[C@@H](O)C[C@@]2(C)[C@H]1CC[C@]2(O)C(=O)CO [HYDROCORTISONE]
Completion: Compound metabolized

Prompt: # lookup: Bacterial Biotransformation of CCC(C)(C)C(=O)O[C@H]1C[C@@H](C)C=C2C=C[C@H](C)[C@H](CC[C@@H]3C[C@@H](O)CC(=O)O3)[C@H]21 [SIMVASTATIN]
Completion: Compound NOT metabolized
